The following molecules are shown together with reported inhibition at 10 µM values.
Target: Noradrenaline reuptake (Rattus norvegicus, UniProt Q63380)
Construct: synaptosomes are freshly isolated from areas of the rat brain; from tissue; host or cells: P2 synaptosome fraction from the hypothalamus of male rat brains
Sequence (Q63380 1-617): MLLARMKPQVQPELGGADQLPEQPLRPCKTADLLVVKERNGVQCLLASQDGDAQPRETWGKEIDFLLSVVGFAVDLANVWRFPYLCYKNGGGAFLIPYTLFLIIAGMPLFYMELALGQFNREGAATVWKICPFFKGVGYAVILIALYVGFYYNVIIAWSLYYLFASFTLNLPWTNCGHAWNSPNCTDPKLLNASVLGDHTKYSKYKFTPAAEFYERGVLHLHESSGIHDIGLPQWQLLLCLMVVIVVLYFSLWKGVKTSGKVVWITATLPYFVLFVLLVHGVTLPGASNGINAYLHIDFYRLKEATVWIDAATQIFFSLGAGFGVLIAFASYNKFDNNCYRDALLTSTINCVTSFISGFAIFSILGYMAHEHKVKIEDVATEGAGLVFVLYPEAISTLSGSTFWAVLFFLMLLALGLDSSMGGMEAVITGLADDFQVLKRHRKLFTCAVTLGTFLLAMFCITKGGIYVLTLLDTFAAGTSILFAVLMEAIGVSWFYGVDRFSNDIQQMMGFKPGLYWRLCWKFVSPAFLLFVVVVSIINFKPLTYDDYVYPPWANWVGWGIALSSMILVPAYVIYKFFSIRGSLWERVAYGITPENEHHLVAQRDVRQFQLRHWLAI
Experiment: Inhibition of noradrenaline (NA) reuptake in rat brain synaptosomes
Assay type: biochemical
Conditions: synaptosomes from rat hypothalamus
valueType: inhibition at 10 µM (%)

CN(C)C(c1ccc(Cl)cc1)C1CCC2(CC1)OCCc1c2[nH]c2ccc(F)cc12 (stereo not drawn) [Compound 38]: 59
CN(C)C(CCc1ccccc1)C1CCC2(CC1)OCCc1c2[nH]c2ccccc12 (stereo not drawn) [Compound 28]: 52
CN(C)C(c1cccc(F)c1)C1CCC2(CC1)OCCc1c2[nH]c2ccccc12 (stereo not drawn) [Compound 26]: 49
CN(C)C(CCc1ccccc1)C1CCC2(CC1)NCCc1c2[nH]c2ccccc12 (stereo not drawn) [Compound 20]: 91
CN(C)C(c1cccc(F)c1)C1CCC2(CC1)NCCc1c2[nH]c2ccccc12 (stereo not drawn) [Compound 18]: 58
CN(C)C(c1ccccc1)C1CCC2(CC1)OCCc1c2[nH]c2ccccc12 (stereo not drawn) [Compound 27]: 64
CN(C)C(c1ccc(F)cc1)C1CCC2(CC1)OCCc1c2[nH]c2ccc(F)cc12 (stereo not drawn) [Compound 35]: 50
CN(C)C(c1ccccc1)C1CCC2(CC1)NCCc1c2[nH]c2ccccc12 (stereo not drawn) [Compound 19]: 65
CC1Cc2c([nH]c3ccc(F)cc23)C2(CCC(C(c3ccccc3)N(C)C)CC2)O1 (stereo not drawn) [Compound 53]: 47

###

Molecular target: human μ opiate receptor (Homo sapiens)
Construct: purchased PerkinElmer Life Sciences, Zaventem, Belgium RB-HOM; host or cells: CHO-K1 cells (recombinant expression)
Assay: Affinity for the human μ opiate receptor ([3H]-naloxone displacement, CHO-K1 membrane preparation, SPA)
Type: binding
Settings: 1 μM test substance; displacement of [3H]-naloxone
Decision: μ opioid receptor [1 μM], % inhibition >= 50% yields Fulfilled, all other cases yield Not fulfilled.

CC1Cc2c([nH]c3ccc(F)cc23)C2(CCC(C(c3ccc(Cl)cc3)N(C)C)CC2)O1 (stereo not drawn): Fulfilled
CN(C)C(c1ccc(F)cc1)C1CCC2(CC1)NCCc1c2[nH]c2ccccc12 (stereo not drawn): Not fulfilled
CN(C)C(c1cccs1)C1CCC2(CC1)NCCc1c2[nH]c2ccccc12 (stereo not drawn): Fulfilled
Cc1ccc2[nH]c3c(c2c1)CC(C)OC31CCC(C(c2ccc(F)cc2)N(C)C)CC1 (stereo not drawn): Fulfilled
CN(C)C(c1ccc(Cl)cc1)C1CCC2(CC1)NCCc1c2[nH]c2ccccc12 (stereo not drawn): Not fulfilled
CC1Cc2c([nH]c3ccc(F)cc23)C2(CCC(C(c3cccc(F)c3)N(C)C)CC2)O1 (stereo not drawn): Fulfilled
CC1Cc2c([nH]c3ccc(F)cc23)C2(CCC(C(c3ccc(F)cc3)N(C)C)CC2)O1 (stereo not drawn): Not fulfilled
CC1Cc2c([nH]c3ccc(F)cc23)C2(CCC(C(CCc3ccccc3)N(C)C)CC2)O1 (stereo not drawn): Not fulfilled
Cc1ccc2[nH]c3c(c2c1)CC(C)OC31CCC(C(CCc2ccccc2)N(C)C)CC1 (stereo not drawn): Not fulfilled

###

Target: human μ opiate receptor (Homo sapiens)
Construct: purchased PerkinElmer Life Sciences, Zaventem, Belgium RB-HOM; host or cells: CHO-K1 cells (recombinant expression)
Test: Affinity for the human μ opiate receptor ([3H]-naloxone displacement, CHO-K1 membrane preparation, SPA)
Type: binding
Settings: compounds prepared via automated synthesis; single measurements at a test concentration of 1 μM
valueType: μ opioid receptor [1 μmol], % inhibition (%)

CN(C)C(c1cccc(F)c1)C1CCC2(CC1)c1[nH]c3ccccc3c1CCN2C(=O)COc1ccc(Cl)cc1 (stereo not drawn) [Compound 70]: 31
CC(Oc1ccccc1)C(=O)N1CCc2c([nH]c3ccccc23)C12CCC(C(c1ccc(F)cc1)N(C)C)CC2 (stereo not drawn) [Compound 141]: 47
CN(C)C(c1ccc(Cl)cc1)C1CCC2(CC1)c1[nH]c3ccccc3c1CCN2C(=O)C1CCCCC1 (stereo not drawn) [Compound 76]: 15
COc1cccc(CC(=O)N2CCc3c([nH]c4ccccc34)C23CCC(C(c2cccc(F)c2)N(C)C)CC3)c1 (stereo not drawn) [Compound 126]: 50
CC(C)CC(=O)N1CCc2c([nH]c3ccccc23)C12CCC(C(c1ccc(Cl)cc1)N(C)C)CC2 (stereo not drawn) [Compound 134]: 47
COCC(=O)N1CCc2c([nH]c3ccccc23)C12CCC(C(c1ccccc1)N(C)C)CC2 (stereo not drawn) [Compound 81]: 0
CN(C)C(c1ccccc1)C1CCC2(CC1)c1[nH]c3ccccc3c1CCN2C(=O)COCc1ccccc1 (stereo not drawn) [Compound 83]: 50
CN(C)C(c1ccc(Cl)cc1)C1CCC2(CC1)c1[nH]c3ccccc3c1CCN2C(=O)CC(C)(C)C (stereo not drawn) [Compound 73]: 24
CN(C)C(c1ccccc1)C1CCC2(CC1)c1[nH]c3ccccc3c1CCN2C(=O)C=Cc1ccccc1Cl (stereo not drawn) [Compound 61]: 6
CC(CC(=O)N1CCc2c([nH]c3ccccc23)C12CCC(C(c1cccc(F)c1)N(C)C)CC2)c1ccccc1 (stereo not drawn) [Compound 130]: 49
CN(C)C(c1cccc(F)c1)C1CCC2(CC1)c1[nH]c3ccccc3c1CCN2C(=O)CC(C)(C)C (stereo not drawn) [Compound 66]: 26
CN(C)C(c1cccc(F)c1)C1CCC2(CC1)c1[nH]c3ccccc3c1CCN2C(=O)C=Cc1ccccc1Cl (stereo not drawn) [Compound 72]: 24
CN(C)C(c1ccc(F)cc1)C1CCC2(CC1)c1[nH]c3ccccc3c1CCN2C(=O)C1CCCC1 (stereo not drawn) [Compound 109]: 21
CN(C)C(c1ccccc1)C1CCC2(CC1)c1[nH]c3ccccc3c1CCN2C(=O)C=Cc1ccccc1 (stereo not drawn) [Compound 80]: 41
CC(=Cc1ccccc1)C(=O)N1CCc2c([nH]c3ccccc23)C12CCC(C(c1cccc(F)c1)N(C)C)CC2 (stereo not drawn) [Compound 68]: 19

###

The following molecules are shown together with reported Serotonin reuptake, % inhibition [10 μM] values.
Molecular target: Serotonin reuptake (Rattus norvegicus)
Construct: synaptosomes are freshly isolated from areas of the rat brain; from tissue
Sequence (P31652 whole entry): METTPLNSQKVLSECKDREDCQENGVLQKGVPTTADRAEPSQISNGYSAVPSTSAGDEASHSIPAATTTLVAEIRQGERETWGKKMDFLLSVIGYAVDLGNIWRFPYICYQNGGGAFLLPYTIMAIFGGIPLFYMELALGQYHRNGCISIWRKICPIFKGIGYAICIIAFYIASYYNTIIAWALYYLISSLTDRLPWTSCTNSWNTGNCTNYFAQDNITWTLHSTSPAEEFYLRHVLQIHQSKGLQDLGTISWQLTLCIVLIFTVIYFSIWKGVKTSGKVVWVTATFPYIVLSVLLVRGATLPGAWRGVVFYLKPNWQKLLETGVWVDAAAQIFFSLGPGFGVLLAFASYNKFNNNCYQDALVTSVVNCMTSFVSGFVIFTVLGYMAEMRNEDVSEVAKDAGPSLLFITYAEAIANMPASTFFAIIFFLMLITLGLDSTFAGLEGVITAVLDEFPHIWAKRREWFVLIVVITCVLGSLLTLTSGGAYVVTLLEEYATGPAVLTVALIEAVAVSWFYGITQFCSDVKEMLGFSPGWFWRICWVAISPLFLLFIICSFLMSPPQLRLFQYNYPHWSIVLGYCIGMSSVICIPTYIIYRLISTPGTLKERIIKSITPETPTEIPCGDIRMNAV
Assay: Inhibition of serotonin (5HT) reuptake in rat brain synaptosomes
Type: biochemical
valueType: Serotonin reuptake, % inhibition [10 μM] (%)

Cc1ccc2[nH]c3c(c2c1)CC(C)OC31CCC(C(c2ccc(F)cc2)N(C)C)CC1 (stereo not shown): 47
CN(C)C(c1ccc(F)cc1)C1CCC2(CC1)NCCc1c2[nH]c2ccccc12 (stereo not shown): 83
CC1Cc2c([nH]c3ccc(F)cc23)C2(CCC(C(c3ccc(F)cc3)N(C)C)CC2)O1 (stereo not shown): 39
CN(C)C(c1cccs1)C1CCC2(CC1)NCCc1c2[nH]c2ccccc12 (stereo not shown): 72
CC1Cc2c([nH]c3ccc(F)cc23)C2(CCC(C(CCc3ccccc3)N(C)C)CC2)O1 (stereo not shown): 55
CN(C)C(c1ccc(Cl)cc1)C1CCC2(CC1)NCCc1c2[nH]c2ccccc12 (stereo not shown): 76
CC1Cc2c([nH]c3ccc(F)cc23)C2(CCC(C(c3cccc(F)c3)N(C)C)CC2)O1 (stereo not shown): 68

###

Target: human μ opiate receptor (Homo sapiens, UniProt P35372)
Construct: purchased PerkinElmer Life Sciences, Zaventem, Belgium RB-HOM; host or cells: CHO-K1 cells (recombinant expression)
Sequence (P35372 whole entry): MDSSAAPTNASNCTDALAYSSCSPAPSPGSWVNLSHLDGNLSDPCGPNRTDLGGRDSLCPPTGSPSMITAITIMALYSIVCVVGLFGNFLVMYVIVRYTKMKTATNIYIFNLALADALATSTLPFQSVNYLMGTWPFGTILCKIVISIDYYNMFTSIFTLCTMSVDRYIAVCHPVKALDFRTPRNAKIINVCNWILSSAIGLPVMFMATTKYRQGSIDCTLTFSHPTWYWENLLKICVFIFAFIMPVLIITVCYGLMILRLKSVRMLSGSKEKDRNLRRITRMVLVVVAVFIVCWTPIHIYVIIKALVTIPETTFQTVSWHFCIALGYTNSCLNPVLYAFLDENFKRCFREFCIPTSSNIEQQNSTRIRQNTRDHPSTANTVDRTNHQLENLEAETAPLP
Assay: Affinity for the human μ opiate receptor ([3H]-naloxone displacement, CHO-K1 membrane preparation, SPA)
Assay type: binding
Conditions: compounds prepared via automated synthesis; single measurements at a test concentration of 1 μM
Protocol: The receptor affinity for the human μ opiate receptor is determined in a homogeneous set-up in microtitre plates. […] After the end of the ninety-minute incubation time, the microtitre plates are centrifuged for 20 minutes at 1,000 g and the radioactivity is measured in a β-counter (Microbeta-Trilum, PerkinElmer Wallac, Freiburg, Germany). […]
Decision: μ opioid receptor [1 μmol], % inhibition >= 20% yields yes, all other cases yield no.

CN(C)C(c1ccc(F)cc1)C1CCC2(CC1)c1[nH]c3ccccc3c1CCN2C(=O)COc1ccc(Cl)cc1 (stereo not shown) [Compound 65]: no
CC(Oc1ccccc1)C(=O)N1CCc2c([nH]c3ccccc23)C12CCC(C(c1ccc(Cl)cc1)N(C)C)CC2 (stereo not shown) [Compound 133]: yes
CN(C)C(c1ccc(F)cc1)C1CCC2(CC1)c1[nH]c3ccccc3c1CCN2C(=O)Cc1ccc(F)cc1 (stereo not shown) [Compound 110]: no
COc1cccc(CC(=O)N2CCc3c([nH]c4ccccc34)C23CCC(C(c2ccc(F)cc2)N(C)C)CC3)c1 (stereo not shown) [Compound 140]: yes
Cc1ccc2sc(C(=O)N3CCc4c([nH]c5ccccc45)C34CCC(C(c3cccc(F)c3)N(C)C)CC4)cc2c1 (stereo not shown) [Compound 128]: no
CN(C)C(c1ccc(F)cc1)C1CCC2(CC1)c1[nH]c3ccccc3c1CCN2C(=O)CCC1CCCC1 (stereo not shown) [Compound 85]: yes
COCC(=O)N1CCc2c([nH]c3ccccc23)C12CCC(C(c1cccc(F)c1)N(C)C)CC2 (stereo not shown) [Compound 92]: yes
